The reported numbers originate from the PETadex activity labels.

substrate: BHET; details: 120 h
Result type: plate clearing

[[record]]
protein = "unnamed (protein) MLALRTSFPRVLTRLLAASLATGLVAQAQAAGHERGPAPTAASLEAEAGPFQVASTVLGAPVGYKGGTVFYPKGPGPFALVAFAPGFIETQSWNAWWAKYLASHGFVVVNIDTKSTLAFPPARQREQLAALKDVIQRSHTRGTPFYGLVDATRLGAMGHSMGGGATLELARDTPHIKAIVPMAPFQTTGTDYSRLTVPTLILTCKGDIVASAKSHAAPIYDSLPSSLDKAHVELAGGGGHPCTTSLGTSAEVKKVAAKYGVSWLKRFLDEDTRYSPFLCGAEHEASLKTSVVSAYQGNCPH"
experimental_value = "not clears the plate"

[[record]]
protein = "unnamed (protein) MERGNHRAKWVIGLGLLALAAAAQSQTNPFQKGPDPTSTLLNATSGPFSVATSSVSSLAAQGFGGGTIYYPSTTGTYAVLAISPGFTATQSSIAWLGRRIATHGFVVITIDTNSTLDQPPSRATQLIAALRHVTDLSNATVRSRVDASRRGVAGHSMGGGGSLIAARDNPSLKAAVPLTAWSTTKVFSTVQVPTLVVGAENDTIASVSSHSIPFYTSLSSSLDKAYAELNNASHLAPNTTNTPIGRYSVAWVKRFMDNDTRYTPFLCGAPHQSYATSAVFSDYRSTCPY"
experimental_value = "not clears the plate"

